Parameter kon: see the listing below.
TARGET UNDER TEST: T1, cynomolgus monkey BCMA (cynomolgus monkey, UniProt A0A2K5UD97 1-53)
T1 construct: Soluble analyte in SPR; construct not described; also called cyBCMA; Cyno BCMA
T1 sequence (A0A2K5UD97 entry or part of it): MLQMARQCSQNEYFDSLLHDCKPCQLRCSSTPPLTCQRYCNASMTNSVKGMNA
TEST DETAILS: SPR, IgG immobilised, 37 C
The answer should read as a number with its unit following.

* L3.PY/L1.PS/H2.LT (antibody, V domains shown, IgG) VH: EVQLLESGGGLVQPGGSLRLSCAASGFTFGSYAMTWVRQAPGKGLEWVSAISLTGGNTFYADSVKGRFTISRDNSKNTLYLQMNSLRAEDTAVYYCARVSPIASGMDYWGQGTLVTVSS VL: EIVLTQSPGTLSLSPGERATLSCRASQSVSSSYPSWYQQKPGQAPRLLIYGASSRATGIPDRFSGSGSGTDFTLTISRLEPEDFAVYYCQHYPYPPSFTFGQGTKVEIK | 2.17e+06 M⁻¹ s⁻¹
* L3.PY/L1.AH/H3.YA (antibody, V domains shown, IgG) VH: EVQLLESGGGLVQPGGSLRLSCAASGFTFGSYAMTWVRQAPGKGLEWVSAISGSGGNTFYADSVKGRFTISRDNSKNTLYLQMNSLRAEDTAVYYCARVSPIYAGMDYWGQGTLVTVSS VL: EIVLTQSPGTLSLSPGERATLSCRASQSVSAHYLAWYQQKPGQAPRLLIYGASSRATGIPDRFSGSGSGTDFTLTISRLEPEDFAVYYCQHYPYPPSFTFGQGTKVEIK | 2.37e+06 M⁻¹ s⁻¹

Could you now look at the following binder, please?
So what does the record say about kon for L3.PY/L1.PH/P6E01 (antibody, V domains shown, IgG) VH: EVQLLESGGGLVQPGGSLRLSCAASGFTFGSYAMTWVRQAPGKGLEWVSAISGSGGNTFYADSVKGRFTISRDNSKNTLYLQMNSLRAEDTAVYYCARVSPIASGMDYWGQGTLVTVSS VL: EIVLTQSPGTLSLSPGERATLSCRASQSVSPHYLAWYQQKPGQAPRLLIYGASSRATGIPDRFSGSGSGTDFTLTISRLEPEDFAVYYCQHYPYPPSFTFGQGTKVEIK ? 2.17e+06 M⁻¹ s⁻¹

meta.source: patent US20160297884A1
